Counter-ions that a name gives are not always drawn.
Recorded melting point for the following compounds

Example entries begin here.
INSERT INTO assay_data (compound, reportedproperty, experimentalresult) VALUES
  ('FC(F)(F)c1ccc(-c2cc(Nc3ccc4ncsc4c3)nnc2-c2ccc(C(F)(F)F)cc2)cc1', 'melting point', '243 °C'),
  ('Cc1ccc(Nc2cc(-c3ccc(C(F)(F)F)cc3)ncn2)cc1', 'melting point', '159 to 160 °C'),
  ('FC(F)(F)c1ccc(-c2cc(Nc3cccc4ncccc34)ncn2)cc1', 'melting point', '238 to 239 °C');

## Task Respond only with melting point recorded for CC(C)(C)c1ccc(-c2cc(Nc3ccc4c(c3)OCCO4)nc(N)n2)cc1 (as salt: hydrochloride)
## Result 221 to 224 °C

## Task Respond only with melting point recorded for `FC(F)(F)c1ccc(-c2cc(Nc3ccc(Cl)c(C(F)(F)F)c3)ncn2)cc1`
## Result 172 to 175 °C

## Task Respond only with melting point recorded for `FC(F)(F)c1ccc(-c2cc(Nc3ccc4c(c3)OCCO4)ncn2)cc1`
## Result 167 to 168 °C

## Task Respond only with melting point recorded for `COc1ccc(Nc2cc(-c3ccc(C(F)(F)F)cc3)ncn2)cn1`
## Result 123 to 127 °C

## Task Respond only with melting point recorded for `FC(F)(F)c1ccc(-c2cc(Nc3cccc4[nH]ccc34)ncn2)cc1`
## Result 222 to 224 °C

## Task Respond only with melting point recorded for `COc1ccc2ccc(Nc3cc(-c4ccc(C(F)(F)F)cc4)ncn3)cc2n1`
## Result 199 °C
